target: Induced myeloid leukemia cell differentiation protein Mcl-1 (Homo sapiens) (UniProt Q07820); assay: blockers of Bid binding to Mcl-1 – biochemical, TR-FRET, dose response (AID 1418); conditions: Mcl-1/Bid peptide binding, TR-FRET (europium/Dy647), 2 hr
Sequence (Q07820 whole entry, looked up): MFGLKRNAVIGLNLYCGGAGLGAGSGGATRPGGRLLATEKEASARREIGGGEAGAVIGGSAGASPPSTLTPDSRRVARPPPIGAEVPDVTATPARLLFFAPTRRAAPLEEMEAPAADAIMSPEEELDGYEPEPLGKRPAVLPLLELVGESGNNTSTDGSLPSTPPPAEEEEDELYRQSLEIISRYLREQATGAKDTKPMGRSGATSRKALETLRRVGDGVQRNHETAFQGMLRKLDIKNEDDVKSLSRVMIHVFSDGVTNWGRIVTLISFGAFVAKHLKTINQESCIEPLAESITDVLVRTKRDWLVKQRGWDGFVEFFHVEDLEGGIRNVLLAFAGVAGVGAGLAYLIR
Calls of active or inactive are those of the source. No rule for the calls is given here.
Classes used: t for active, f for inactive

molecule	label value
COc1cc(/C=C2\SC(=O)N(Cc3ccc(Cl)cc3)C2=O)cc([N+](=O)[O-])c1O	t
O=C(/C=C/N1CCOCC1)c1coc2ccccc12	f
N#Cc1cccc(NC(=O)CSc2ccc3c4c(cccc24)C(=O)c2ccccc2-3)c1	t
O=C(CSc1nc2c(cnn2-c2ccc(F)cc2)c(=O)[nH]1)N1CCCc2ccccc21	f
CN(C)S(=O)(=O)c1cccc(NC(=O)c2cc3c(=O)n4ccccc4nc3s2)c1	f
Cc1ccc(-n2c(C)n[nH]c2=S)cc1C	f
CCOc1ccc(/C=C/C(=O)Nc2ccc(N3CCOCC3)cc2)cc1	f
CN(C)c1ccnc2sc(C(N)=O)c(N)c12	f
COc1cc(/C=C2\SC(=O)N(c3ccc(Cl)cc3)C2=O)cc([N+](=O)[O-])c1O	t
Cc1ccc(CNc2nc(C)nc3sc4c(c23)CCC4)cc1	f
CCOc1cc(/C=C2\C(=O)N(c3nc(-c4ccc(Br)cc4)cs3)N=C2c2ccccc2)ccc1O	t
O=C1/C(=C/C=C/c2ccco2)SC(=S)N1NS(=O)(=O)c1ccccc1	t
O=C(COc1ccc(S(=O)(=O)N2CCCC2)cc1Cl)NC1CC1	f
C#CCOCCOCCOCCNc1nc(N2CCN(C(=O)[C@H](CCCCN)n3cc([C@@H](N)C(C)CC)nn3)CC2)nc(N2CCN(C(=O)[C@H](CCCCN)n3cc([C@@H](N)CO)nn3)CC2)n1 (stereo not given in full)	t
COc1cc2c(cc1OC)C(Nn1cnnc1)=NC1(CCCC1)C2	f
CCCN1CCC(NC(=S)Nc2ccc(C(=O)OCC)cc2)CC1	f
CC(C)(C)c1cc(-c2csc(Nc3ccccc3)[n+]2Cc2ccc(C(=O)O)cc2)cc(C(C)(C)C)c1O	t
CCOC(=O)N1CCN(C(=O)CSc2ccc3nnc(CCNC(=O)c4ccc(OC)cc4)n3n2)CC1	f
O=C(NCc1nc2ncc(Br)cc2[nH]1)c1ccccc1	f
Cc1ccc2nc(NC(=O)c3cccc(-c4cc5ccccc5oc4=O)c3)sc2c1	t
CC(C)NC(=O)c1ccc(COCC(F)(F)F)cc1	f
COc1ccc2[nH]c(=O)c(CNC3CCCCC3)cc2c1	f
Cc1occc1C(=O)N/N=C/c1ccc(N(C)C)cc1	f
CCn1c(C)cc(/C=C2/NC(=O)N(CC(=O)Nc3cccc(C)c3)C2=O)c1C	t
Cc1ccc(-c2nc(N3CCOCC3)sc2C(=O)N2CCCCC2)cc1	f
O=c1c(C(c2ccccc2)c2c(O)sc3ccccc3c2=O)c(O)sc2ccccc12	t
O=[N+]([O-])c1ccc(/C=N/NC(=S)Nc2ccc(Cl)cc2Cl)s1	t
Cc1ccc(-c2noc(-c3ccccc3C(=O)N3CCN(C)CC3)n2)cc1	f
O=C1CN(C(=O)CNCc2ccccc2)c2ccccc2N1	f
COc1ccc(NC(=O)c2cc(C3CC3)on2)c(OC)c1	f
O=C1N=C2N(CCN3CCCCC3)c3ccccc3N2/C1=C\c1ccc([N+](=O)[O-])o1	f
CC(=O)Oc1ccc(Cl)cc1/C=C/c1ccc2ccccc2n1	f
COc1cc(-c2nc(-c3ccc(NC(=O)c4ccc(Br)o4)cc3)no2)cc(OC)c1OC	t
CNC(=O)CC1C(=O)N(c2ccc(OC)cc2)C(=S)N1NC(=O)c1cccc(F)c1 (stereo not given)	f
Cn1c(=O)c2c(nc(Cc3ccc(N)cc3)n2C)n(C)c1=O	f
Cc1ccc(NC(=O)CN2C(=O)S/C(=C/c3ccc(-c4cc(C(=O)O)ccc4C)o3)C2=O)cc1C	t
C#CCOCCOCCOCCNc1nc(N2CCN(C(=O)[C@H](Cc3cc4ccccc4[nH]3)n3cc([C@@H](N)C(C)CC)nn3)CC2)nc(N2CCN(C(=O)[C@H](Cc3cc4ccccc4[nH]3)n3cc([C@@H](N)Cc4ccc(O)cc4)nn3)CC2)n1 (stereo not given in full)	f
O=C(NC(=S)NCc1cccnc1)c1ccc([N+](=O)[O-])cc1	f
CC(C)[C@H](NC(=O)NCCC1=CCCCC1)C(=O)O	f
CCOc1ccccc1Nc1nc(-c2sc(NC(=O)c3ccc([N+](=O)[O-])cc3)nc2C)cs1	t
